Values compiled from patent US9611252B2.

# tgt: human Plasma Kallikrein (Homo sapiens (Human), UniProt P03952)
# Sequence (P03952 20-638): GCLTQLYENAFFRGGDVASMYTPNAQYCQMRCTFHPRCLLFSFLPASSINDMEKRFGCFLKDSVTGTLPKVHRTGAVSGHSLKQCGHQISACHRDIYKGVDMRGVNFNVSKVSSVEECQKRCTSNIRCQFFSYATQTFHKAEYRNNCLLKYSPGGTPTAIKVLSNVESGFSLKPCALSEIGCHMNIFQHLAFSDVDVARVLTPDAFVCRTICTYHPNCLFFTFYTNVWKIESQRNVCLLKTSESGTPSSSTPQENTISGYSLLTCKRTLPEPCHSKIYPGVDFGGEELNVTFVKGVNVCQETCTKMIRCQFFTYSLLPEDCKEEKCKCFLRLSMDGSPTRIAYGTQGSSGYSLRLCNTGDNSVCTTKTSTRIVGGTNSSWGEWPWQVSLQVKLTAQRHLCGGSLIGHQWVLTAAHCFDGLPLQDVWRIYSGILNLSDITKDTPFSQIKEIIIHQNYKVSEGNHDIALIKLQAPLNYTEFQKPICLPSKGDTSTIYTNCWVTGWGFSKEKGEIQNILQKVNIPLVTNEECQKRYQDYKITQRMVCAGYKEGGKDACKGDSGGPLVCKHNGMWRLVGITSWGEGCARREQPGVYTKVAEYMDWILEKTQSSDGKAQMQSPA
# test: In vitro enzyme inhibition of human plasma kallikrein (PFR-AMC cleavage)
# Type: biochemical
# measurement setup: human plasma kallikrein, Pro-Phe-Arg-AMC substrate, 37° C.; read-out: hPK IC50
observable: IC50

Which IC50 value is on record for NC(=O)c1cc(Cc2cc(C(=O)NCc3ccc4c(N)nccc4c3)ccn2)cc2cc(Cl)cnc12 ?
< 100 nM

Which IC50 value is on record for Cc1nc(N)c(C#N)cc1CNC(=O)c1ccnc(Cc2ccc3ncc(Cl)cc3c2)c1 ?
1000 to 10000 nM

Which IC50 value is on record for Cc1ccc2ncc(Cc3cc(C(=O)NCc4ccc5c(N)noc5c4)ccn3)cc2c1 ?
> 10000 nM

Which IC50 value is on record for Cc1cc(N)nc(C)c1CNC(=O)c1ccnc(Cc2cnc3cc(F)ccc3c2)c1 ?
< 100 nM

Which IC50 value is on record for Cc1cnc2c(S(C)(=O)=O)cc(Cc3cc(C(=O)NCc4ccc5[nH]cc(Cl)c5c4F)ccn3)cc2c1 ?
< 100 nM

Which IC50 value is on record for Cc1nc(N)c(Cl)cc1CNC(=O)c1ccnc(Cc2ccc3ncc(Cl)cc3c2)c1 ?
1000 to 10000 nM

Which IC50 value is on record for Cc1cc(N)nc(C)c1CNC(=O)c1ccnc(Cc2cnc3ccc(F)cc3c2)c1 ?
< 100 nM

Which IC50 value is on record for O=C(NCc1cc2c(Cl)c[nH]c2cc1F)c1ccnc(Cc2cc(F)c3ncc(Cl)cc3c2)c1 ?
< 100 nM

Which IC50 value is on record for N#Cc1cc(Cc2cc(C(=O)NCc3ccc4c(N)nccc4c3)ccn2)cc2cc(Cl)cnc12 ?
< 100 nM

Which IC50 value is on record for Cc1cc(N)nc(C)c1CNC(=O)c1ccnc(Cc2ccc3[nH]cc(Cl)c3c2)c1 ?
100 to 1000 nM

Which IC50 value is on record for Cc1nc(N)ccc1CNC(=O)c1ccnc(Cc2cc(S(C)(=O)=O)c3ncc(Cl)cc3c2)c1 ?
< 100 nM

Which IC50 value is on record for CNc1ccc(CNC(=O)c2ccnc(Cc3ccc4ncc(Cl)cc4c3)c2)c(C)n1 ?
100 to 1000 nM

Which IC50 value is on record for Cc1cc(N)nc(C)c1CNC(=O)c1ccnc(Cn2cc3cc(Cl)ccc3cc2=O)c1 ?
100 to 1000 nM

Which IC50 value is on record for Nc1nccc2cc(CNC(=O)c3ccnc(Cc4ccc5ncc(Cl)cc5c4)c3)ccc12 ?
< 100 nM

Which IC50 value is on record for Cc1cc(N)nc(C)c1CNC(=O)c1ccnc(Cc2ccc3nc(CN)ccc3c2)c1 ?
< 100 nM

Which IC50 value is on record for Cc1cc(N)nc(C)c1CNC(=O)c1ccnc(Cc2cc(F)c3ncc(Cl)cc3c2)c1 ?
< 100 nM

Which IC50 value is on record for Cc1ccc2ncc(Cc3cc(C(=O)NCc4ccc(N)nc4C)ccn3)cc2c1 ?
< 100 nM
